System: NOMO1
method_notes: AUC of viability dose-response curve (% viability x log10 dose units); higher = less sensitive
test_context: RPMI 5 mM glucose + 10% dialyzed FBS; 48 h
Listed here are molecules together with their documented AUC of viability dose-response curve.
// no unit string in output, number only

Use the examples below as a reference point.
- molecule: "O=c1[nH]c2ccccc2n1C1CCN(Cc2ccc(-c3nc4cc5nc[nH]c5cc4nc3-c3ccccc3)cc2)CC1"
  subject_of_test: "NOMO1"
  AUC of viability dose-response curve: 474
- molecule: "CO[C@@H]1COCC[C@@H]1N[C@@H]1CC[C@@](C(=O)N2CCc3ncc(C(F)(F)F)cc3C2)(C(C)C)C1"
  subject_of_test: "NOMO1"
  AUC of viability dose-response curve: 472
- molecule: "COc1ccc(-n2nc(C(N)=O)c3c2C(=O)N(c2ccc(N4CCCCC4=O)cc2)CC3)cc1"
  subject_of_test: "NOMO1"
  AUC of viability dose-response curve: 300
- molecule: "Cn1c(CNc2ccc(C(=N)N)cc2)nc2cc(C(=O)N(CCC(=O)O)c3ccccn3)ccc21"
  subject_of_test: "NOMO1"
  AUC of viability dose-response curve: 440
- molecule: "C[C@]12CCC(=O)C=C1CC[C@@H]1[C@@H]2CC[C@@]2(C)[C@H]1CC[C@]2(C)O"
  subject_of_test: "NOMO1"
  AUC of viability dose-response curve: 453

Field request: AUC of viability dose-response curve | item: CCC(C)(C)c1ccc(CC(C)CN2C[C@@H](C)O[C@@H](C)C2)cc1 (stereo not given in full)
397

Field request: AUC of viability dose-response curve | item: COc1ccc(-c2nc(N3CCOCC3)c3sc(CN(C)c4ncc(C(=O)NO)cn4)cc3n2)cn1
166
